# experimental-system: Delta-type opioid receptor (Rattus norvegicus)
# Sequence (P33533 whole entry): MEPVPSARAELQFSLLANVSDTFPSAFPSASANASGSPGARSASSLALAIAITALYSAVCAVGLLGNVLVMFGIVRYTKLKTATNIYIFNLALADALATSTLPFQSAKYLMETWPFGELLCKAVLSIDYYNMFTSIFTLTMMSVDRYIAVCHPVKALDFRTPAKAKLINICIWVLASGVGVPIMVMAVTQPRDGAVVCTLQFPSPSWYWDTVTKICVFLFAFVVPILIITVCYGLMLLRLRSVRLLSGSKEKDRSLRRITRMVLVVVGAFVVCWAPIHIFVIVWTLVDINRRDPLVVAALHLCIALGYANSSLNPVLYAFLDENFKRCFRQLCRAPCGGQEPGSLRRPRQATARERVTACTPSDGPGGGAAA
# measurement-notes: Displacement of [3H]deltorphin2 from delta opioid receptor in Sprague-Dawley rat brain P2 synaptosomal membrane
experimental-readout: pKi
pKi (log units): -log10 of the concentration in mol/L.

Ask | Given Cc1cc(O)cc(C)c1C[C@H](N)C(=O)N1Cc2ccccc2C[C@H]1C(=O)N[C@@H](CCCCN)c1nc2ccccc2[nH]1 , respond with its pKi.
Reply | 9.31

Ask | State its pKi: CC(=O)NCCCC[C@H](NC(=O)[C@@H]1Cc2ccccc2CN1C(=O)[C@@H](N)Cc1c(C)cc(O)cc1C)c1nc2ccccc2[nH]1
Reply | 9.74

Each recorded value in this set is attributed to ChEMBL document CHEMBL1146884.
